# methodNotes: In vivo radioactivity biodistribution experiment in normal mice (Example 1, Table 13)
# Set-up: species or system ddY mice
# experimentalConditions: intestine, 2 min after injection
Reported Biodistribution of radioactivity, Intestine is given for each of the following molecules.
attributeMeasured: Biodistribution of radioactivity, Intestine

molecule	result
CN(C)c1ccc(/C=C2\Oc3ccc([125I])cc3C2=O)cc1 [[^125I]7]	1.65 (0.35) % injected dose per gram
COc1ccc(/C=C2\Oc3ccc([125I])cc3C2=O)cc1 [[^125I]17]	1.59 (0.51) % injected dose per gram
Nc1ccc(/C=C2\Oc3ccc([125I])cc3C2=O)cc1 [[^125I]14]	3.12 (0.85) % injected dose per gram
CNc1ccc(/C=C2\Oc3ccc([125I])cc3C2=O)cc1 [[^125I]12]	3.06 (1.11) % injected dose per gram
O=C1/C(=C/c2ccc(O)cc2)Oc2ccc([125I])cc21 [[^125I]20]	2.11 (0.75) % injected dose per gram

----------
Reported Biodistribution of radioactivity, Stomach is given for each of the following molecules.
# methodNotes: In vivo radioactivity biodistribution experiment in normal mice (Example 1, Table 13)
# Parameters: species or system ddY mice
# experimentalConditions: stomach, 10 min after injection
attributeMeasured: Biodistribution of radioactivity, Stomach

molecule	result
COc1ccc(/C=C2\Oc3ccc([125I])cc3C2=O)cc1 [[^125I]17]	1.06 (0.66) % injected dose per organ
CNc1ccc(/C=C2\Oc3ccc([125I])cc3C2=O)cc1 [[^125I]12]	2.53 (0.97) % injected dose per organ
Nc1ccc(/C=C2\Oc3ccc([125I])cc3C2=O)cc1 [[^125I]14]	2.94 (0.86) % injected dose per organ
O=C1/C(=C/c2ccc(O)cc2)Oc2ccc([125I])cc21 [[^125I]20]	2.53 (0.97) % injected dose per organ
CN(C)c1ccc(/C=C2\Oc3ccc([125I])cc3C2=O)cc1 [[^125I]7]	1.35 (1.25) % injected dose per organ

----------
Reported Biodistribution of radioactivity, Brain is given for each of the following molecules.
# methodNotes: In vivo radioactivity biodistribution experiment in normal mice (Example 1, Table 13)
# Parameters: species or system ddY mice
# experimentalConditions: brain, 2 min after injection

molecule	Biodistribution of radioactivity, Brain
CN(C)c1ccc(/C=C2\Oc3ccc([125I])cc3C2=O)cc1 [[^125I]7]	1.89 (0.38) % injected dose per gram
O=C1/C(=C/c2ccc(O)cc2)Oc2ccc([125I])cc21 [[^125I]20]	3.07 (0.39) % injected dose per gram
Nc1ccc(/C=C2\Oc3ccc([125I])cc3C2=O)cc1 [[^125I]14]	4.57 (0.27) % injected dose per gram
CNc1ccc(/C=C2\Oc3ccc([125I])cc3C2=O)cc1 [[^125I]12]	3.17 (0.45) % injected dose per gram
COc1ccc(/C=C2\Oc3ccc([125I])cc3C2=O)cc1 [[^125I]17]	1.69 (0.43) % injected dose per gram

----------
# methodNotes: In vivo radioactivity biodistribution experiment in normal mice (Example 1, Table 13)
# Set-up: species or system ddY mice
# experimentalConditions: kidney, 60 min after injection
Reported Biodistribution of radioactivity, Kidney is given for each of the following molecules.

molecule	Biodistribution of radioactivity, Kidney
O=C1/C(=C/c2ccc(O)cc2)Oc2ccc([125I])cc21 [[^125I]20]	2.43 (1.04) % injected dose per gram
COc1ccc(/C=C2\Oc3ccc([125I])cc3C2=O)cc1 [[^125I]17]	2.43 (1.17) % injected dose per gram
CN(C)c1ccc(/C=C2\Oc3ccc([125I])cc3C2=O)cc1 [[^125I]7]	4.51 (1.43) % injected dose per gram
Nc1ccc(/C=C2\Oc3ccc([125I])cc3C2=O)cc1 [[^125I]14]	4.95 (1.82) % injected dose per gram
CNc1ccc(/C=C2\Oc3ccc([125I])cc3C2=O)cc1 [[^125I]12]	3.52 (0.77) % injected dose per gram
